Target: Tyrosine-protein kinase JAK3 (Homo sapiens, UniProt P52333)
Sequence (P52333 whole entry): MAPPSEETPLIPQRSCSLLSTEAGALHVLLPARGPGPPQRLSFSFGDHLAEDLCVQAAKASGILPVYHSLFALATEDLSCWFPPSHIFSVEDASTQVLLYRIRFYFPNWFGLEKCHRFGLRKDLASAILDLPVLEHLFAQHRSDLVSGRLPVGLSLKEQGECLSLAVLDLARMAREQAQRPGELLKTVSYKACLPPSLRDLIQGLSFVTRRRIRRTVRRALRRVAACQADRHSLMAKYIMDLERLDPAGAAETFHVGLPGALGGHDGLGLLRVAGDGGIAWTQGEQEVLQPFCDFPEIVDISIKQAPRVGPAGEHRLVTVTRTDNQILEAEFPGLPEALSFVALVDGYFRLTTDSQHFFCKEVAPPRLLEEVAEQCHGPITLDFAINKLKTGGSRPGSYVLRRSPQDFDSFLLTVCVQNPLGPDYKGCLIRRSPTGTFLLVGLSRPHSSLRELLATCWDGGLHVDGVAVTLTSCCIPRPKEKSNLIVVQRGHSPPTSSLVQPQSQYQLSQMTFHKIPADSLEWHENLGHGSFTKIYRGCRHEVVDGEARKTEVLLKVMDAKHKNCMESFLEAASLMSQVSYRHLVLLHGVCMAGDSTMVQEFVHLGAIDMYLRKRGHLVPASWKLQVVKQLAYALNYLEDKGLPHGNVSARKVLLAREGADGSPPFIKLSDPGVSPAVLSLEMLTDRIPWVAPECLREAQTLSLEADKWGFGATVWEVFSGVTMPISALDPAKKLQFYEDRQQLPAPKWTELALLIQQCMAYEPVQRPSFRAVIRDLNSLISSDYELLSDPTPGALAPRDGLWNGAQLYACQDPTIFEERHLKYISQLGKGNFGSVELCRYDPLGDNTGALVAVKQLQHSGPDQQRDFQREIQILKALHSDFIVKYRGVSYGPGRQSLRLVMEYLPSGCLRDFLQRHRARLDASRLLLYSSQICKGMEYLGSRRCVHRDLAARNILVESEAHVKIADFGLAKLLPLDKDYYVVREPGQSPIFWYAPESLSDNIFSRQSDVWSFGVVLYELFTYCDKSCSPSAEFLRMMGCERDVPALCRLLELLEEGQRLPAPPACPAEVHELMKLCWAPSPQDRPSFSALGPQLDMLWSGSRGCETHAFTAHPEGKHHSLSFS
So I've got a bunch of molecules here, and I need their IC50 values.
Just the number please, in nM, no unit attached.

# input Please report the measured IC50 for `Cc1nc2cnc3ccc(-c4cc(Cl)c(O)c(Cl)c4)cc3c2n1[C@H]1CC[C@H](N(C)C)CC1`
# output 63

# input Give the value of IC50 reported for the following: `Cc1nc2cnc3ccc(-c4cc(Cl)c(O)c(Cl)c4)cc3c2n1[C@@H]1CCCN(C)C1`
# output 3.2

# input Identify measured IC50 corresponding to `Cc1nc2cnc3ccc(-c4cc(Cl)c(O)c(Cl)c4)cc3c2n1[C@H]1CC[C@H](CO)CC1`
# output 15.4

# input Using the record for `Cc1nc2cnc3ccc(-c4cc(Cl)c(O)c(Cl)c4)cc3c2n1C1CCN(C)CC1` , state its measured IC50.
# output 46.2

====

outcome-measure: IC50

# input Answer briefly: IC50 recorded on Tyrosine-protein kinase JAK3 (Homo sapiens, UniProt P52333) for `Cc1nc2cnc3ccc(-c4ccc(O)cc4Cl)cc3c2n1C1CCN(C)CC1`
# output > 500 nM

# input Find the measured IC50 of `Cc1nc2cnc3ccc(-c4cc(F)c(O)c(F)c4)cc3c2n1C1CCN(C)CC1` with Tyrosine-protein kinase JAK3 (Homo sapiens, UniProt P52333) as test system.
# output > 500 nM

# input Lab note: Tyrosine-protein kinase JAK3 (Homo sapiens, UniProt P52333) assay, enter IC50 for `Cc1nc2cnc3ccc(-c4cc(Cl)c(O)c(Cl)c4)cc3c2n1C1CCN(CN(C)C)CC1` here
# output 62 nM
